- Procedure Text: Components of the Cytosolic LPS Sensing Pathway: Gene Identification via Genome-wide siRNA Screen;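 note: robust z of the log signal after scaling to non-targeting control siRNA wells of the plate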
- Experimental Setup: RAW264.7 macrophages, IL-1a HTRF, actives lie on both sides, screened at 100 nM (by protocol), cells primed 5 h with Pam3CSK4 first
- Method: Non-canonical inflammasome activation by cytosolic LPS is a critical component of the host response to Gram-negative bacterial infection, however we lack a comprehensive understanding of the cellular processes that control this pathway. […] Lipofectamine RNAiMAX Transfection Reagent ([…]; Invitrogen) was added in […] serum-free, antibiotic-free media to plate wells using a Thermo Scientific Matrix WellMate and Microplate Stacker. […] The plates were read on an EnVision plate reader (PerkinElmer). […]
In all, about 53,000 sequences went through this assay and about 3,700 (7%) were called active. The full list was thinned out, with actives kept by preference.
Listed next: entries and their corresponding z-score.
Property Label: z-score

INSERT INTO assay_data (monomer_sequence, test_value) VALUES
  ('GGACAAGCUGAGGUGAAAATT against Maats1', -1.08),
  ('CCAUCCUAGCUGUGGUAAGTT against Olfr554', 1.32),
  ('GGCUCAAAUACAGGAAAUUTT against Tmem45b', 0.498),
  ('GCCUCAUCCCUAUAGUCCUTT against Spaca9', -0.257),
  ('AACGUAAUUAGCGUGAAUUTT against Cyp2j11', 0.337),
  ('GGAAUUUGAGAUUGAAUGUTT against Katnbl1', 0.478),
  ('GACCACCAGAAAGUUUCACTT against Lfng', 0.339),
  ('GGAGAUAUGGCCAUCACUCTT against Toe1', 1.11),
  ('GGAACGAAUGAAAAGACUUTT against Tpp2', 0.35),
  ('GGACCAUGCUCCCUACUUATT against Prss37', 0.386),
  ('GCCAAGCAUUAAGUGAUAATT against Setmar', 2.7),
  ('GGAGCUGAUAAGAAAACUATT against Gbp2', 0.486);
